test system: MDA-MB-435
Select the correct class. Options are 1 (active), -1 (inactive) and nothing else.

{"molecule": "CCN(CC)CCCC(C)Nc1c2ccc(Cl)cc2nc2ccc(O)cc12 (centres undefined)", "targetOfAssay": "MDA-MB-435", "categoryLabel": -1}
{"molecule": "COc1ccc(-c2onc(N)c2-c2cc(OC)c3c(c2)OCO3)cc1", "targetOfAssay": "MDA-MB-435", "categoryLabel": 1}
{"molecule": "O=C(O)/C=C(\\c1nc2ccc([N+](=O)[O-])cc2[nH]1)c1cc(Cl)ccc1O", "targetOfAssay": "MDA-MB-435", "categoryLabel": -1}
{"molecule": "C[N+]1=C(/C=C/c2ccc(O)c3ncccc23)C(C)(C)c2ccccc21", "targetOfAssay": "MDA-MB-435", "categoryLabel": -1}
{"molecule": "Cc1cc2c(cc1Cl)SC1=NN(C)S(=O)N1S2(=O)=O (centres undefined)", "targetOfAssay": "MDA-MB-435", "categoryLabel": -1}
{"molecule": "OCCCNc1nc(=S)[nH]c2[nH]ncc12", "targetOfAssay": "MDA-MB-435", "categoryLabel": -1}
{"molecule": "COC(=O)Nc1nc2ccc(Oc3ccc(NC(=O)Nc4cc(C(F)(F)F)ccc4F)cc3)cc2s1", "targetOfAssay": "MDA-MB-435", "categoryLabel": -1}
{"molecule": "O=S(=O)(NC1=NCCN1C(=S)SN1CCn2c1nsc2=S)c1cccc(Cl)c1", "targetOfAssay": "MDA-MB-435", "categoryLabel": -1}

Field: next molecule
## Task Would you mind telling me which call this test gave CC[C@@]1(c2ccccc2)C2=C(CC(C)(C)CC2=O)Nc2[nH]ncc21 ?
## Result -1
